Task for the reader: assign each of the following compounds its reported log10 Ki.
# target-entity: human FLAP (Homo sapiens (Human))
# test-details: FLAP binding assay (HTRF format)
# test-parameters: read-out: FLAP Binding wild type HTRF Ki
Where a name gives a salt, the structure may show the parent alone.
Field: value | Transform: log10 | Quantity: Ki | Unit: nM

log10 Ki on human FLAP (Homo sapiens (Human)) for CCS(=O)(=O)Cc1ccccc1-c1ccc(-c2cnc(N)cn2)c(F)c1 is 2.39

Assay human FLAP (Homo sapiens (Human)), sample Nc1ccnc(Sc2ccccc2-c2ccc(-c3cnc(N)nc3)c(F)c2)n1 [Example 330, formate salt] , log10 Ki read: 1.08

log10 Ki value, target or system human FLAP (Homo sapiens (Human)), for Nc1ncc(-c2ccc(-c3ccccc3S(=O)(=O)N[C@@H](c3ccccc3)C(F)(F)F)cc2F)cn1 [Example 292, trifluoroacetic acid salt] : 1.08

Form field, log10 Ki with human FLAP (Homo sapiens (Human)), item Nc1ncc(-c2ccc(-c3cccnc3S(=O)(=O)C3CC3)cc2F)cn1 [Example 828, formic acid salt] : 2.06

The reported human FLAP (Homo sapiens (Human)) log10 Ki of Nc1ncc(-c2ccc(-c3ccccc3S(=O)(=O)c3ncncc3N)cc2F)cn1 [Example 337, hydrochloride] is 3.40

Test item CC(C)(C)NS(=O)(=O)c1ccccc1-c1ccc(-c2cnc(N)c(C(F)(F)F)c2)c(F)c1 [Example 452, trifluoroacetic acid salt] ; human FLAP (Homo sapiens (Human)); reported log10 Ki was 1.91

For CC(C)(C)S(=O)(=O)c1ncccc1-c1ccc(-c2cnc(N)cn2)c(F)c1 [Example 812, formic acid salt] on human FLAP (Homo sapiens (Human)), measured log10 Ki was 0.93

====

# target-entity: human FLAP (Homo sapiens (Human), UniProt P20292)
# Sequence (P20292 whole entry): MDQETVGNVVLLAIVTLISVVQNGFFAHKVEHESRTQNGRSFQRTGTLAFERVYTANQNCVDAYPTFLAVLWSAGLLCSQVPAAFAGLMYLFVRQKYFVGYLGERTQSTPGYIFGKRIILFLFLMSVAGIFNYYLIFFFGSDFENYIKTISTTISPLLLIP
# test-details: FLAP binding assay (HTRF format)
# test-parameters: wild type FLAP, HTRF format
Note to self: Ki under 0.02 µM means y, ties and anything higher get n.

Query string: Consider Nc1cnc(-c2ccc(-c3ccccc3-c3cncc(N)n3)cc2F)cn1 . Does its Ki lie strictly below 0.02 µM?
Result string: y

Query string: Just wondering, is Ki of Nc1ncc(-c2ccc(-c3ccccc3S(=O)(=O)N3CCNC(=O)C3)cn2)cn1 below 0.02 µM?
Result string: n

Query string: Given COc1cnc(Oc2ccccc2-c2ccc(-c3cnc(N)nc3)c(F)c2)nc1 , is recorded Ki strictly lower than 0.02 µM?
Result string: y

Query string: Decide: Ki of CC(C)(C)NS(=O)(=O)c1ccccc1-c1ccc(-c2cnc(N)c(C#N)n2)c(F)c1 strictly below 0.02 µM?
Result string: y

Query string: API: query returns whether the compound falls strictly under 0.02 µM in Ki. Query: Nc1ncc(-c2ccc(-c3ccccc3S(=O)(=O)c3ccnc(N)n3)cc2F)cn1
Result string: n

Query string: Below 0.02 µM on Ki? Entry Nc1cnc(-c2ccc(-c3cc(C(F)(F)F)ccc3-c3cnc(N)nc3)cc2F)cn1
Result string: n

Query string: Ki strictly < 0.02 µM for this compound? Nc1cnc(-c2ccc(-c3cccnc3OCCO)cc2F)cn1
Result string: n

Query string: # check: Ki < 0.02 µM for CCNS(=O)(=O)c1cc(C(F)(F)F)ccc1-c1ccc(-c2ncc(N)nc2C#N)c(F)c1
Result string: y

Query string: Decide: Ki of C[C@H](NC(=O)c1cc(C(F)(F)F)ccc1-c1ccc(-c2cnc(N)nc2)c(F)c1)C(F)(F)F strictly below 0.02 µM?
Result string: y

Query string: I'd appreciate it if you could check whether Nc1ncc(-c2ccc(-c3ccccc3C(=O)N3CCC[C@H](O)C3)cc2F)cn1 has Ki smaller than 0.02 µM.
Result string: n

Query string: Does the reported Ki of the following compound sit strictly below 0.02 µM? N#Cc1nc(N)cnc1-c1ccc(-c2ccc(C(F)(F)F)cc2S(=O)(=O)NCCO)cc1F
Result string: y

Query string: In plain terms, does Nc1ncc(-c2ccc(-c3ccccc3Oc3cc(C4CC4)ncn3)cc2F)cn1 come in under 0.02 µM for Ki?
Result string: y

Query string: Lab note: confirm whether the reported Ki for this compound is below 0.02 µM, equality not counting. compound: Fc1cc(-c2cccnc2OCC(F)(F)F)ccc1-c1cnc2[nH]ccc2n1
Result string: n

Query string: Find out if reported Ki for Nc1ncc(-c2ccc(-c3ccccc3C(=O)NC3CCOCC3)cc2F)cn1 is less than 0.02 µM
Result string: n

Query string: API: query returns whether the compound falls strictly under 0.02 µM in Ki. Query: CN(C)S(=O)(=O)c1ccccc1-c1ccc(-c2cnc(N)cn2)cc1F
Result string: n

Query string: Does the reported Ki of the following compound sit strictly below 0.02 µM? Nc1cnc(-c2ccc(-c3ccccc3CS(=O)(=O)c3ncccn3)cc2F)cn1
Result string: n

Query string: Threshold test, Ki < 0.02 µM: Cc1nccc(Oc2ccccc2-c2ccc(-c3cnc(N)cn3)c(F)c2)n1
Result string: y

Query string: Bench note: check whether Nc1ncc(-c2ccc(-c3ccccc3C(=O)N3CC(O)C3)cc2F)cn1 shows Ki below 0.02 µM
Result string: n

Query string: Does Nc1cncc(S(=O)(=O)c2ccccc2-c2ccc(-c3cnc(N)nc3)c(F)c2)n1 have Ki strictly under 0.02 µM?
Result string: n

Query string: Please indicate whether the reported Ki of CC(C)COc1ncccc1-c1ccc(-c2cnc3[nH]ccc3n2)c(F)c1 is strictly below 0.02 µM.
Result string: n

Query string: hey, is Ki for Nc1cnc(-c2ccc(-c3ccccc3-c3cnc(N4CCOCC4)nc3)cc2F)cn1 lower than 0.02 µM or not?
Result string: n

Query string: Dear colleague, could you confirm whether Ki of Nc1ncc(-c2ccc(-c3ccccc3C(=O)N3CCOC(CO)C3)cc2F)cn1 (racemic) falls below 0.02 µM? Thanks.
Result string: n

Query string: Record CC(C)Oc1ncccc1-c1ccc(-c2cnc(N)nc2)c(F)c1 : is its Ki strictly below 0.02 µM?
Result string: n

Query string: Is Ki of Nc1cnc(-c2ccc(-c3c(F)cccc3F)cc2F)cn1 strictly below 0.02 µM?
Result string: n

Query string: I wonder whether Nc1cnc(-c2ccc(-c3ccc(C(F)(F)F)cc3-c3cnc(N)nc3)cc2F)cn1 has Ki below 0.02 µM. Can you tell?
Result string: y

Query string: Bench note: check whether CC(C)(C)NS(=O)(=O)c1ccccc1-c1ccc(-c2cnc(N)cn2)c(F)c1F shows Ki below 0.02 µM
Result string: y

Query string: Regarding Nc1cnc(-c2ccc(-c3ccccc3CSc3nccc(N)n3)cc2F)cn1 , kindly confirm whether its Ki is beneath 0.02 µM.
Result string: y

Query string: # strict comparison: is reported Ki < 0.02 µM? input = CC(C)(C)NS(=O)(=O)c1ccccc1-c1ccc(-c2cn3cc(C(N)=O)ccc3n2)c(F)c1
Result string: n

Query string: # check: Ki < 0.02 µM for COc1cc(-c2ccccc2S(=O)(=O)NC(C)(C)C)ccc1-c1cnc(N)cn1
Result string: n

Query string: Does CSc1ccccc1-c1ccc(-c2cnc(N)cn2)c(F)c1 have Ki strictly under 0.02 µM?
Result string: n

Query string: Dear reviewer, please state whether Nc1cnc(-c2ccc(-c3ccccc3C(=O)NC3CCOCC3)cc2F)cn1 has Ki strictly beneath 0.02 µM.
Result string: n

Query string: Does the reported Ki of the following compound sit strictly below 0.02 µM? C[C@H]1COCCN1C(=O)c1ccccc1-c1ccc(-c2cnc(N)nc2)c(F)c1
Result string: n

Query string: Quick check: does Nc1ncc(-c2ccc(-c3ccccc3Oc3ncccn3)cc2F)cn1 have Ki under 0.02 µM?
Result string: n

Query string: Determine whether this compound shows Ki lower than 0.02 µM (ties excluded): C[C@H](CO)Oc1ncccc1-c1ccc(-c2cnc(N)nc2)c(F)c1
Result string: n

====

# target-entity: human FLAP (Homo sapiens (Human))
# test-details: FLAP binding assay (HTRF format)
# test-parameters: human FLAP wild type, HTRF format; average of two plates, duplicates
Structures can show the parent of a compound that is named as a salt.
readout-kind: log10 of Ki (log10 of the value in µM)
// do not treat as linear: log10 of Ki, unit µM

Hey, human FLAP (Homo sapiens (Human)) data for CN([C@@H]1CCCNC1)S(=O)(=O)c1ccccc1-c1ccc(-c2cnc(N)cn2)c(F)c1 : log10 of Ki came out at -1.92

Form field log10 of Ki for item CC(C)(NS(=O)(=O)c1ccccc1-c1ccc(-c2cnc(N)nc2)c(F)c1)C(F)(F)F [Example 296, trifluoroacetic acid salt] on human FLAP (Homo sapiens (Human)): -2.30

Reading of log10 of Ki for Nc1cnc(-c2ccc(-c3ccccc3S(=O)(=O)Nc3ccccc3)cc2F)cn1 with human FLAP (Homo sapiens (Human)): -3.00

Tested system human FLAP (Homo sapiens (Human)); log10 of Ki recorded for Nc1cnc(-c2ccc(-c3ccccc3S(=O)(=O)N[C@@H](c3ccccc3)C(F)(F)F)cc2F)cn1 was -2.70

Given the molecule Nc1ncc(-c2ccc(-c3ccccc3S(=O)(=O)N[C@H]3CCNC3=O)cc2F)cn1 and test system human FLAP (Homo sapiens (Human)), the measured log10 of Ki is -0.77

Hey, human FLAP (Homo sapiens (Human)) data for Nc1ncc(-c2ccc(-c3ccc(C(F)(F)F)cc3S(N)(=O)=O)cc2F)cn1 : log10 of Ki came out at -1.49

Form field log10 of Ki for item Nc1cnc(-c2ccc(-c3ccccc3S(=O)(=O)N3CCC[C@H]3CO)cc2F)cn1 on human FLAP (Homo sapiens (Human)): -2.00

Entry C[C@H]1CNCCN1S(=O)(=O)c1ccccc1-c1ccc(-c2cnc(N)cn2)c(F)c1 : log10 of Ki on human FLAP (Homo sapiens (Human)) = -1.82

Reported human FLAP (Homo sapiens (Human)) log10 of Ki for item Nc1cnc(-c2ccc(-c3ccccc3CSc3ccc(N)nn3)cc2F)cn1 [Example 240, hydrochloride] was -2.70

Result for CN1CCN(S(=O)(=O)c2cc(C(F)(F)F)ccc2-c2ccc(-c3cnc(N)nc3)c(F)c2)CC1 , tested on human FLAP (Homo sapiens (Human)), log10 of Ki: -1.82

Per the reported human FLAP (Homo sapiens (Human)) data, Nc1cnc(-c2ccc(-c3ccccc3Sc3ncccn3)cc2F)cn1 [Example 213, hydrochloride] has log10 of Ki of -2.70

Given the molecule Nc1ncc(-c2ccc(-c3ccccc3S(=O)(=O)N3CCS(=O)(=O)CC3)cc2F)cn1 and test system human FLAP (Homo sapiens (Human)), the measured log10 of Ki is -1.55

Measured log10 of Ki for this entry Nc1cnc(-c2ccc(-c3ccccc3S(=O)(=O)NC3CC4CCC3C4)cc2F)cn1 (racemic) on human FLAP (Homo sapiens (Human)): -2.52

For the molecule CC(C)(C)Sc1ccccc1-c1ccc(-c2cnc(N)cn2)c(F)c1 , the measured log10 of Ki on human FLAP (Homo sapiens (Human)) was -1.24

Summary: Nc1ncc(-c2ccc(-c3ccccc3S(=O)(=O)Cc3nc4ccccc4c(=O)[nH]3)cc2F)cn1 , human FLAP (Homo sapiens (Human)), log10 of Ki = -0.47

I looked up CC(C)S(=O)(=O)Nc1ccccc1-c1ccc(-c2cnc(N)cn2)c(F)c1 and its log10 of Ki for human FLAP (Homo sapiens (Human)) was -1.51

Kindly note: human FLAP (Homo sapiens (Human)), CC(C)(C)[C@H](CO)NS(=O)(=O)c1ccccc1-c1ccc(-c2cnc(N)cn2)c(F)c1 , log10 of Ki value reported: -3.00

GET /values?item= Nc1cnc(-c2ccc(-c3ccccc3S(=O)(=O)C3CCCC3)cc2F)cn1 &system= human FLAP (Homo sapiens (Human)) returns log10 of Ki: -2.52

Measured log10 of Ki (human FLAP (Homo sapiens (Human))), entry Nc1cnc(-c2ccc(-c3ccccc3S(=O)(=O)N3CCC(O)(c4ccccc4)C3)cc2F)cn1 (racemic) : -2.70

# log10 of Ki measured on human FLAP (Homo sapiens (Human)) for item CC[C@H](C)[C@@H](CO)NS(=O)(=O)c1ccccc1-c1ccc(-c2cnc(N)cn2)c(F)c1 = -2.52

The reported log10 of Ki value, human FLAP (Homo sapiens (Human)), for Nc1cnc(-c2ccc(-c3ccccc3S(=O)(=O)N(C3CCOCC3)C3CC3)cc2F)cn1 reads -3.00

# Nc1cnc(-c2ccc(-c3ccccc3S(=O)(=O)N3CCOC(CO)C3)cc2F)cn1 (racemic) with human FLAP (Homo sapiens (Human)): log10 of Ki is -1.82

# CCN(CC)C(=O)CSc1ccccc1-c1ccc(-c2cnc(N)cn2)c(F)c1 with human FLAP (Homo sapiens (Human)): log10 of Ki is -1.68

Entry NC(=O)NC1CCN(S(=O)(=O)Cc2ccccc2-c2ccc(-c3cnc(N)cn3)c(F)c2)CC1 [Example 232, hydrochloride] ; assay system human FLAP (Homo sapiens (Human)); log10 of Ki recorded at -0.45

Reported human FLAP (Homo sapiens (Human)) log10 of Ki for item CNC1CCN(S(=O)(=O)c2ccccc2-c2ccc(-c3cnc(N)cn3)c(F)c2)CC1 was -0.95

Summary line: CC(C)CS(=O)(=O)c1ccccc1-c1ccc(-c2cnc(N)cn2)c(F)c1 , human FLAP (Homo sapiens (Human)), reported log10 of Ki = -1.59

So the reported log10 of Ki for CN(C)S(=O)(=O)c1ccccc1-c1ccc(-c2cnc3[nH]ccc3n2)c(F)c1 , on human FLAP (Homo sapiens (Human)), turned out to be -2.70

Entry Nc1cnc(Sc2ccccc2-c2ccc(-c3cnc(N)nc3)c(F)c2)nc1 [Example 329, formate salt] ; assay system human FLAP (Homo sapiens (Human)); log10 of Ki recorded at -1.92

I looked up Nc1cnc(-c2ccc(-c3ccccc3CS(=O)(=O)NCCO)cc2F)cn1 [Example 221, formic acid salt] and its log10 of Ki for human FLAP (Homo sapiens (Human)) was -0.52

# lookup: Nc1cnc(-c2ccc(-c3ccccc3SCC(=O)N3CCOCC3)cc2F)cn1 on human FLAP (Homo sapiens (Human)), log10 of Ki = -1.14

Sample Nc1cnc(-c2ccc(-c3ccccc3S(=O)(=O)N3C[C@H]4C[C@@H]3CN4)cc2F)cn1 , system: human FLAP (Homo sapiens (Human)). Its log10 of Ki is -0.89
